- Tested on: HL-60(TB) leukemia
- measurement_description: NCI tumour cell line growth inhibition, 48 h
readout_name: TGI

COc1ccc(C[C@H]2NC(=O)/C=C/C[C@@H]([C@H](C)[C@H]3O[C@@H]3c3ccccc3)OC(=O)[C@H](CC(C)C)OC(=O)[C@H](C)CNC2=O)cc1    5.2e-05 µM
COC1/C(=C\C(=O)OC(C)(C)C)c2ccccc2N1C(C)=O (centres undefined)    > 100 µM
CC(=O)[C@H]1CC[C@H]2[C@@H]3CCC4=CC(=O)CC[C@]4(C)[C@H]3CC[C@]12C    87.1 µM
Nc1ccccc1/C=C\c1ccccc1    > 100 µM
O=c1[nH]c2nccnc2c2c([N+](=O)[O-])cccc12    > 100 µM
Fc1ccc(C2NC(=S)NC3=C2CCOc2c3ccc3ccccc23)cc1 (centres undefined)    > 100 µM
Cc1c(C#N)c2nnn(-c3ccc([N+](=O)[O-])cc3)c(=O)n2c1-c1ccccc1    60.3 µM
CN1[C@@H]2CCCC[C@H]2N(C)P1(=O)C(O)/C=C/c1ccccc1 (some centres undefined)    > 100 µM
C[C@@H]1O[C@@H](O[C@@H]2[C@@H](O)[C@H](OCCc3ccc(O)c(O)c3)O[C@H](COC(=O)/C=C/c3ccc(O)c(O)c3)[C@H]2O)[C@H](O)[C@H](O)[C@H]1O    > 100 µM
COc1cc(CCNC2=CC(=O)c3cccnc3C2=O)ccc1O    9.43 µM
O=C(O)C(F)(F)C(F)(F)C(F)(F)C(F)(F)C(=O)O    > 100 µM
COc1ccc(-c2cc(C3CC3)nc(SCC(=O)O)c2C#N)cc1    > 100 µM
O=C(/C=C/C=C/c1ccccc1)CCc1ccccc1    53 µM
CSc1nc2c(c(=O)n1C)N=C(c1ccc(Cl)cc1)CC(c1ccccc1)N2 (centres undefined)    62.4 µM
CC1(C)NCCC[C@]2(C)[C@H]3C=CC4=C5C[C@](C)(CO)CC[C@]5(C)CC[C@@]4(C)[C@]3(C)CC[C@@H]12    7.02 µM
N#Cc1ccccc1NC(=O)/C(=N\NC(=O)c1ccncc1)C(c1cnc2ccc([N+](=O)[O-])cc2n1)[N+](=O)[O-] (centres undefined)    > 100 µM
c1ccc2[nH]c(SSc3nc4ncncc4[nH]3)nc2c1    > 100 µM
CC(C)(C)OC(=O)NC1CCCC1C(O)(C1=CCCC1)C1=CCCC1 (centres undefined)    > 100 µM
COc1ccc(C(=O)C(c2ccc(OC)cc2)C2(O)C(=O)Nc3c(C)cc(Cl)cc32)cc1 (centres undefined)    > 100 µM
